Structures can show the parent of a compound that is named as a salt.
assay metric: melting point (°C)

[[record]]
compound = "N=C(N)NC(=O)c1ccn(-c2cccc3ncccc23)c1 [Example 6]"
quantitative_readout = 260

[[record]]
compound = "CC(=O)O.Cc1cn(-c2cnc3ccccc3c2)cc1C(=O)NC(=N)N [Example 30]"
quantitative_readout = 279.5

[[record]]
compound = "Cc1cn(-c2cccc3ncccc23)cc1C(=O)NC(=N)N.Cl [Example 13]"
quantitative_readout = 240

[[record]]
compound = "Cl.NC(N)=NC(=O)c1ccn(-c2ccc3ccccc3n2)c1 [Example 1]"
quantitative_readout = 258

[[record]]
compound = "Cc1cn(-c2ncccn2)cc1C(=O)NC(=N)N [Example 25]"
quantitative_readout = 208.5

[[record]]
compound = "Cc1cn(-c2ccnc3ccccc23)cc1C(=O)NC(=N)N [Example 9]"
quantitative_readout = 215

[[record]]
compound = "Cc1c(C(=O)NC(=N)N)ccn1-c1ccc2ccccc2n1 (as salt: hydrochloride) [Example 4]"
quantitative_readout = 250

[[record]]
compound = "Cc1cn(-c2nccc3ccccc23)cc1C(=O)NC(=N)N.Cl [Example 10]"
quantitative_readout = 247

[[record]]
compound = "NC(N)=NC(=O)c1ccn(-c2ccnc3ccccc23)c1 (as salt: hydrochloride) [Example 2, dihydrochloride]"
quantitative_readout = 244


----------
molecular target: NHE-1 subtype (Homo sapiens, UniProt P19634); assay: NHE inhibition FLIPR test (intracellular pH recovery, BCECF) in transfected LAP-1 cell lines expressing NHE subtypes; settings: transfected LAP-1 cells expressing NHE-1 subtype, read-out: IC50 (NHE1)
Sequence (P19634 whole entry): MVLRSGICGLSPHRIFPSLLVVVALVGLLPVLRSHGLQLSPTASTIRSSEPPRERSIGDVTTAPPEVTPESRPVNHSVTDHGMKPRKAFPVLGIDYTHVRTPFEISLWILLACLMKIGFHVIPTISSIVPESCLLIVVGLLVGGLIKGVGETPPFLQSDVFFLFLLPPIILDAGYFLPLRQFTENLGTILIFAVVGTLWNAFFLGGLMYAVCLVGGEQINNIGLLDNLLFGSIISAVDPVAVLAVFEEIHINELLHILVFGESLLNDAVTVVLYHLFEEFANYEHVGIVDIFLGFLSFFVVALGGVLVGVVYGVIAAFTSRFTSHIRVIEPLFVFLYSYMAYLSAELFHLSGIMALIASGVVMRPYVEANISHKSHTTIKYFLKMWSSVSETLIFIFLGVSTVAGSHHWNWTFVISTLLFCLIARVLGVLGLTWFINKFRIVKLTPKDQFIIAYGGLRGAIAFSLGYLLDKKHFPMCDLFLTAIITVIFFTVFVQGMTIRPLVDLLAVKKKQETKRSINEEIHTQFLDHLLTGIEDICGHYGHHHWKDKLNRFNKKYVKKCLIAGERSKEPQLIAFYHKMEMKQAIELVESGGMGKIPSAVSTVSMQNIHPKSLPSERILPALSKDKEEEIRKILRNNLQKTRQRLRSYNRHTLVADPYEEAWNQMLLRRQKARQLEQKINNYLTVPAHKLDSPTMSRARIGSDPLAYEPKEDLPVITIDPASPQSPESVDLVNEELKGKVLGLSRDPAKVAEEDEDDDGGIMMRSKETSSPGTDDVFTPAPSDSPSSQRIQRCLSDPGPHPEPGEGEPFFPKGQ
pIC50: −log10 of the molar value. Structures can show the parent of a compound that is named as a salt.
assay metric: pIC50

1. N=C(N)NC(=O)c1ccn(-c2cncc3ccccc23)c1
2. Cc1cc(-n2ccc(C(=O)N=C(N)N)c2)c2ccccc2n1
3. Cc1cn(-c2ccccn2)cc1C(=O)NC(=N)N
4. Cc1cn(-c2ccnc3ccccc23)cc1C(=O)NC(=N)N
5. NC(N)=NC(=O)c1ccn(-c2nccc3ccccc23)c1 [Example 5, hydrochloride]
Query block: Please rank the 5 items above; order by pIC50, the highest number leading. In plain terms: list the labels in the order you were asked to.
Result block: 4, 3, 2, 5, 1
(4: 9.60, 3: 8.44, 2: 7.97, 5: 7.29, 1: 6.92)

P. Cc1cc(-n2cc(C)c(C(=O)N=C(N)N)c2)c2ccccc2n1 [Example 16, trifluoroacetate]
Q. Cc1c(C(=O)NC(=N)N)ccn1-c1ccc2ccccc2n1 [Example 4, hydrochloride]
Query block: Compare pIC50: is it lower for P or for Q ? Answer by quoting the chosen item's label.
Result block: Q

----------
molecular target: NHE-1 subtype (Homo sapiens, UniProt P19634); experiment: NHE inhibition FLIPR test (intracellular pH recovery, BCECF) in transfected LAP-1 cell lines expressing NHE subtypes; conditions: transfected LAP-1 cells expressing NHE-1 subtype, read-out: IC50 (NHE1)
Structures can show the parent of a compound that is named as a salt.
assay metric: IC50 (nM)

[[record]]
compound = "Cc1cn(-c2ccnc3c(F)cccc23)cc1C(=O)N=C(N)N [Example 22, trifluoroacetate]"
quantitative_readout = 0.2

[[record]]
compound = "Cc1c(C(=O)N=C(N)N)ccn1-c1ccnc2ccccc12 [Example 3, dihydrochloride]"
quantitative_readout = 67

[[record]]
compound = "NC(N)=NC(=O)c1ccn(-c2cnnc3ccccc23)c1 [Example 24, trifluoroacetate]"
quantitative_readout = 222


1. CC(=O)O.Cc1cn(-c2cnc3ccccc3c2)cc1C(=O)NC(=N)N
2. Cc1cn(-c2cccc3ncccc23)cc1C(=O)NC(=N)N.Cl [Example 13, hydrochloride]
3. CC(=O)O.Cc1cn(-c2ccc3ccccc3n2)cc1C(=O)NC(=N)N
Query block: Hey, quick one: sort these by IC50, low to high? In plain terms: list the labels in the order you were asked to.
Result block: 2, 3, 1
